tested on: 786-0 renal; assay: NCI-60 one-dose screen, 48 h; settings: 10 µM unless noted
This is part of a sample that, as a whole, favours compounds with a hit. Of some 83,000 tested, about 20% had one in any assay. The source made the active and inactive calls. How the source made its calls: active means growth percent below 10; inactive means the rest.
Classes to choose from: Y (active), N (inactive)

Query: Could you please tell me the result logged for Nc1nc(Cl)c2c(C(F)(F)F)cn(CC3CCNCC3)c2n1 in this assay?
Reply: N

Query: Called result for CCCC(=O)Oc1ccc(/C(=C(\C)c2ccc(Cl)cc2)c2ccc(OCCN(CC)CC)cc2)cc1
Reply: Y

Query: Please share the test call associated with O=C(NOC1OC(CO)C(O)C(O)C1O)Nc1ccccc1 (configuration not stated) .
Reply: N

Query: Give the logged outcome of this assay for the following compound: CCN(CC)c1ccc(C2CC(c3cc(OC)c(OC)c(OC)c3)=NN2)cc1 (configuration not stated)
Reply: N

Query: Entry S=c1ssnc1-c1ccccn1 : call = ?
Reply: N

Query: Look up the recorded call for COc1ccc(/C=N/C2=NNC(C)(c3ccccc3O)N2C(Cc2c[nH]c3ccccc23)C(=O)O)cc1 (configuration not stated) in this test.
Reply: N

Query: Test call, this compound: O=[N+]([O-])c1ccccc1NC1c2ccccc2Oc2ccccc21
Reply: N

Query: # lookup: test call for COc1cc(NC(=O)C#Cc2ccccc2)c(OC)cc1Cl
Reply: N

Query: Please state the recorded outcome for this compound: c1coc(CSc2ncnc3nc[nH]c23)c1
Reply: N

Query: Outcome logged for COc1cc(NC(C)CCCN2C(=O)c3ccccc3C2=O)c2nc(C)ccc2c1OC (configuration not stated) in this assay:
Reply: N

Query: // outcome(item) with item = CCC1(C(N)=O)CC2C=CC1CC2 (configuration not stated)
Reply: N

Query: recorded result category for Cc1nssc1=S in this test
Reply: N

---

test system: HT29 colon; test: NCI-60 one-dose screen, 48 h; settings: 10 µM unless noted
About 83,000 compounds went through this panel and 20% of them were active in at least one assay; those are over-represented in the sample as a whole. Calls of active or inactive are those of the source. How the source made its calls: active means growth percent below 10; inactive means the rest.
Your answer must be one of the following: active, inactive

compound | assigned_class
CC1(C)CC(=O)C2=C(C1)OC1=C(C(=O)CC(C)(C)C1)C2c1ccc(OCc2cn(-c3ccc(F)cc3F)nn2)cc1 | inactive
COc1ccc(-c2nnc(SCC(=O)N3CCN(c4cc5c(cc4F)c(=O)c(C(=O)O)cn5C4CC4)CC3)o2)cc1OC | inactive
CN1CCN(CC(=O)N(C)c2ccc(N=C(c3ccccc3)c3c(O)[nH]c4ccc(C#N)cc34)cc2)CC1 | inactive
CCc1c2cc(Cl)ccc2n2cc(Cc3ccccc3)[nH]c(=O)c12 | inactive

Query: Hi, sorry to bother you, what did the test record for Nc1ncnc2c1ncn2C1OC(COC(c2ccccc2)(c2ccccc2)c2ccccc2)C(O)C1O (stereo unspecified) ?
Reply: inactive

Query: Outcome? Cc1ccc(=O)n(-c2ccc(Br)cc2F)c1
Reply: inactive

Query: Just curious, what result did CC(=O)c1cc2c(c(O)c1C)C(=O)C(=O)c1c(O)cccc1-2 get here?
Reply: active

Query: Kindly provide the recorded test outcome for the following compound: CC1OC(n2c3ccccc3c3c4c(c5c6ccccc6[nH]c5c32)C(=O)N(CCN[C@@H]2CCC[C@H]2N)C4=O)CC(O)C1O (stereo partly specified)
Reply: active

Query: // param item: COc1cc(NS(=O)(=O)c2ccc(N)cc2)ncn1 ; yields the recorded call
Reply: inactive

Query: Each compound tested received a call. Report the one for O=C(Nc1cccc([N+](=O)[O-])c1)Nc1cccc([N+](=O)[O-])c1 .
Reply: inactive

Query: Give the logged outcome of this assay for the following compound: COc1ccc(-c2ccc(NC(=O)Nc3ccc(Cl)c(C(F)(F)F)c3)c(C)n2)cc1
Reply: inactive

Query: Hey, what did the test say about COc1ccc(/C=C/C(=O)/C=C(/C=C/c2ccc(OC)c(OC)c2OC)OB(F)F)c(OC)c1OC ?
Reply: inactive

Query: GET /call?item= Cc1ccc(-c2cn3cc([N+](=O)[O-])ccc3n2)cc1 returns the recorded outcome of this test.
Reply: inactive

Query: Kindly provide the recorded test outcome for the following compound: COc1cc(NC(C)CCCN2C(=O)c3ccccc3C2=O)c2nc(C)ccc2c1OC (stereo unspecified)
Reply: inactive
